Biological target: T1, Chikungunya virus (CHIKV) nsP2 protease (Chikungunya virus)
T1 chain: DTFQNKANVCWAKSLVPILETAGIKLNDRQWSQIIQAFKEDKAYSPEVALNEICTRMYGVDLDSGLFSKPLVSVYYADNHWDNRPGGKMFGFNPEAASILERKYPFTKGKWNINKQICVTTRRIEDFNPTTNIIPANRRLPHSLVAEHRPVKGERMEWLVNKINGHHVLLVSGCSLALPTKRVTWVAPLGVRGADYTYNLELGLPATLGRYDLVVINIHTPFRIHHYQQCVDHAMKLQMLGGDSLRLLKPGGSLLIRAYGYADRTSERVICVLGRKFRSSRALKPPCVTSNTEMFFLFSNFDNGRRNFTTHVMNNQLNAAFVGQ
Assay: BLI
Conditions: both partners purified
recorded-endpoint: pKd
For clarity, pKd is expressed as the negative log10 of concentration in mol/L.

Form field: reported pKd of GILGKLWEGFKSIV (Stock of 10 mM in DMSO) [pantinin-1] 5.03
